Source listed as PubChem BioAssay AID504834.

assay: Primary qHTS for delayed death inhibitors of the malarial parasite plastid, 96 hour incubation; conditions: P. falciparum luciferase reporter growth; series mostly up to 28.7 µM
About 22,000 (6.9%) of roughly 320,000 compounds were called active. About 27% were inconclusive and are not listed. Calls come from the whole dose curve; as a rule, active = well fitted inhibition curve with a large enough effect; inconclusive = small, poorly fitted or top-dose-only effect, or another doubt; inactive = no such curve, though single readings can be large or run the other way. The full list was thinned out, with actives kept by preference.
Just give me one of these, please: active, inactive

In [3]: df
Out[3]:
                                   compound  assigned_category
0  Cn1c(=O)c2c(nc(Br)n2CCSc2nc3ccccc3o2)n(C)c1=O           inactive
1  COCCn1c(CN(Cc2ccccc2)Cc2ccccc2)nc2c1c(=O)n(C)c(=O)n2C             active
2  CCCN1C2CCCC1CC(NC(=O)NC13CC4CC(CC(C4)C1)C3)C2 (stereo not given)           inactive
3  CCOC(=O)N1CCN(Cc2nc3c(c(=O)n(C)c(=O)n3C)n2Cc2ccccc2)CC1             active

In the following, a different compound is considered.
Hello, I am checking results. What call was entered for `CCN1CCN(Cc2nc3c(c(=O)n(C)c(=O)n3C)n2CC(=O)c2ccccc2)CC1` ? inactive

###

assay: Primary qHTS for delayed death inhibitors of the malarial parasite plastid, 96 hour incubation; details: P. falciparum luciferase reporter growth; series mostly up to 28.7 µM
Screen size: about 320,000 compounds; about 22,000 (6.9%) were called active. Inconclusive results (about 27%) are left out. Calls follow the shape of the dose curve; as a rule, active = well fitted inhibition curve with a large enough effect; inconclusive = small, poorly fitted or top-dose-only effect, or another doubt; inactive = no such curve, though single readings can be large or run the other way. Many of the other results were omitted from the sample, so actives are more common in it than they were.
Just give me one of these, please: active, inactive

Below, 5 compounds whose answers are already recorded.
                                   compound  assigned_category
0  COc1ccc(/C=C/C(=O)c2ccc(NS(=O)(=O)c3ccc(C)cc3)cc2)cc1O             active
1  O=C(NC1CCCC1)C(c1c(F)cccc1Cl)N(C(=O)c1csnn1)C1CC1 (stereo not drawn)           inactive
2  CCn1ccnc1CN(C)C(=O)c1cc(COc2ccc(-n3cncn3)cc2)on1           inactive
3                c1ccc(CCC2=NCCn3cccc32)cc1             active
4  COc1ccc(CC(NC(C)=O)C(=O)NC2CCN(C(=O)c3ccc(Cl)cc3)CC2)cc1 (stereo not drawn)           inactive

Hello, I am checking results. What call was entered for `Cc1ccc2c(C)c(C(=O)N(C)Cc3ccncn3)oc2c1C` ? inactive

Hello, I am checking results. What call was entered for `O=C(CSc1nc2[nH]c(=O)[nH]c(=O)c2s1)Nc1cccc(F)c1` ? inactive

Hello, I am checking results. What call was entered for `COc1cc(C(=O)NNC(=O)CN2C(=O)NC3(CCCC3)C2=O)cc(OC)c1OC` ? inactive

Hello, I am checking results. What call was entered for `Cn1c(CCc2ccccc2)nnc1SCC(N)=O` ? inactive

Hello, I am checking results. What call was entered for CC1(C(=O)OCC(=O)Nc2ncc(Cl)cc2Cl)CC1(Cl)Cl (stereo not drawn) ? inactive

Hello, I am checking results. What call was entered for `COc1ccc(NS(=O)(=O)c2ccc(NC(C)=O)cc2)cc1OC` ? inactive

###

assay: Primary qHTS for delayed death inhibitors of the malarial parasite plastid, 96 hour incubation; details: P. falciparum luciferase reporter growth; series mostly up to 28.7 µM
Hit rate of the full screen: of about 320,000 compounds, about 22,000 (6.9%) were called active. Not shown: some 27% with an inconclusive outcome. The call rests on the fitted dose curve; in most records, active means well fitted inhibition curve with a large enough effect; inconclusive means small, poorly fitted or top-dose-only effect, or another doubt; inactive means no such curve, though single readings can be large or run the other way. The full list was thinned out, with actives kept by preference.
Just give me one of these, please: Y = active, N = inactive

                                   molecule  assigned_category
0          O=C(COc1cccc2c1CCNC2=O)NC1CCCCC1                  N
1  Cc1ccnc(NS(=O)(=O)c2ccc(NC(=O)c3ccc(S(=O)(=O)N4CCOCC4)cc3)cc2)n1                  N
2            CSC1=NCCN1C(=O)Cc1cccc2ccccc12                  N
3  COc1cc(OC)c(NC(=O)C2CCCN2C(=O)OCc2ccccc2)cc1Cl (configuration not stated)                  N
4  O=C(CCNC(=O)C1CCN(S(=O)(=O)c2ccccc2)CC1)NC1CC1                  N
5  O=C(Nc1ccc(S(=O)(=O)Nc2nccs2)cc1)c1cccc(S(=O)(=O)N2CCOCC2)c1                  Y
6    COc1ccc(CN2C(=O)CN=C2Nc2ccc(C)cc2C)cc1                  N
7   CCOC(=O)c1sc(N)c(C#N)c1COC(=O)C1=COCCO1                  N
8  COc1ccc(N(CC(=O)NCCSCc2cccc(Cl)c2)S(C)(=O)=O)cc1                  N
9  COc1cccc(/C=C/C(=O)OCC(=O)N2CCN(c3ccccc3)CC2)c1                  N

Hello, I am checking results. What call was entered for `CCOC(=O)c1c(NC(=O)CCl)sc(C(=O)N(CC)CC)c1C` ? Y

Hello, I am checking results. What call was entered for `NC(=O)c1nnsc1-c1ccc(-c2snnc2C(N)=O)cc1` ? N

Hello, I am checking results. What call was entered for `O=C1[C@H]2[C@@H](c3ccc(Cl)cc3)N3C(=O)N(c4cccc(F)c4)C(=O)[C@@]3(Cc3ccccc3)[C@H]2C(=O)N1C1CCCCC1` ? Y

Hello, I am checking results. What call was entered for CCOc1ccccc1C1CC(c2cccc(NS(C)(=O)=O)c2)=NN1C(=O)c1ccccc1 (configuration not stated) ? Y

Hello, I am checking results. What call was entered for `Cc1ccc(Cc2nnc(SCC(=O)Nc3ccc(C)cc3C)[nH]c2=O)cc1` ? N
